# test-system: Heat sensitive channel TRPV3 (Rattus norvegicus)
# Sequence (Q4QYD9 whole entry): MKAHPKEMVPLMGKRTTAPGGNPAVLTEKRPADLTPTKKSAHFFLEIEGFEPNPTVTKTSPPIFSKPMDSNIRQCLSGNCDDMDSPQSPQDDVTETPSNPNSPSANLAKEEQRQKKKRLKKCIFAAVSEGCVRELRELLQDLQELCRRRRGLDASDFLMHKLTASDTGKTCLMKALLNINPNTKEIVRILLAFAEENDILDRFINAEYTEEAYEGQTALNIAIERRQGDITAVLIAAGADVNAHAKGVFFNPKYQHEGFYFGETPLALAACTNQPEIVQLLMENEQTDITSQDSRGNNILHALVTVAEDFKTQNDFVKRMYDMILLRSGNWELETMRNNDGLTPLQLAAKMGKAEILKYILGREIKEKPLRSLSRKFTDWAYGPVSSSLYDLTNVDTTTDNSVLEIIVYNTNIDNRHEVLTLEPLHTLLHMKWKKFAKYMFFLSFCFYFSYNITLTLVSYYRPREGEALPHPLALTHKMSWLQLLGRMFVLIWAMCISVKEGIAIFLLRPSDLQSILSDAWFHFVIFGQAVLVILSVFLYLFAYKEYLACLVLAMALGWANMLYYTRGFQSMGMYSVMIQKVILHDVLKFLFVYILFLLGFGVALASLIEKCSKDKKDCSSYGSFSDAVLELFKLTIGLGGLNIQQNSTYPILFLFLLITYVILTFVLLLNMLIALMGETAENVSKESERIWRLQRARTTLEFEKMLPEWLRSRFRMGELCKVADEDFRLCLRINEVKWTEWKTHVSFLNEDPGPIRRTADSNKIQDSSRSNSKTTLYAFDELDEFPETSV
# experiment: Antagonist activity at recombinant rat TRPV3 expressed in HEK293 cells assessed as inhibition of thymol-induced intracellular calcium accumulation preincubated for 5 mins followed by thymol addition by Fluo-4-AM probe-based spectrofluorimetric assay
# IC50 per record follows

[[record]]
compound = "COc1cc2c(cc1OC)[C@H](c1ccc(Cl)cc1)N(C(=O)N1CCc3cc(OC)c(OC)cc3[C@@H]1c1ccc(Cl)cc1)CC2 (racemic)"
property_label = "IC50"
value = "> 100 µM"


Q. Observed IC50 on Heat sensitive channel TRPV3 (Rattus norvegicus) for "COc1cc(/C=C2\NC(=O)[C@@H]3Cc4c(OC)c(C)c(OC)c(OC)c4[C@@H](c4ccccc4)N3C2=O)c(OC)c(C)c1OC" , please.
A. 34.3 µM

Q. Which measured IC50 belongs to COc1cc2c(cc1OC)[C@H](c1ccc(F)cc1)N(C(=O)N1CCc3cc(OC)c(OC)cc3[C@@H]1c1ccc(F)cc1)CC2 (racemic) , tested on Heat sensitive channel TRPV3 (Rattus norvegicus)?
A. 72.9 µM

Q. Write down the reported IC50 of COc1cc2c(cc1OC)[C@H](c1ccccc1)N(C(=O)N1CCc3cc(OC)c(OC)cc3[C@@H]1c1ccccc1)CC2 (racemic) , test system: Heat sensitive channel TRPV3 (Rattus norvegicus).
A. > 100 µM

---

Entries and their IC50
# test-system: Transient receptor potential cation channel subfamily M member 8 (Rattus norvegicus)
# Sequence (Q8R455 whole entry): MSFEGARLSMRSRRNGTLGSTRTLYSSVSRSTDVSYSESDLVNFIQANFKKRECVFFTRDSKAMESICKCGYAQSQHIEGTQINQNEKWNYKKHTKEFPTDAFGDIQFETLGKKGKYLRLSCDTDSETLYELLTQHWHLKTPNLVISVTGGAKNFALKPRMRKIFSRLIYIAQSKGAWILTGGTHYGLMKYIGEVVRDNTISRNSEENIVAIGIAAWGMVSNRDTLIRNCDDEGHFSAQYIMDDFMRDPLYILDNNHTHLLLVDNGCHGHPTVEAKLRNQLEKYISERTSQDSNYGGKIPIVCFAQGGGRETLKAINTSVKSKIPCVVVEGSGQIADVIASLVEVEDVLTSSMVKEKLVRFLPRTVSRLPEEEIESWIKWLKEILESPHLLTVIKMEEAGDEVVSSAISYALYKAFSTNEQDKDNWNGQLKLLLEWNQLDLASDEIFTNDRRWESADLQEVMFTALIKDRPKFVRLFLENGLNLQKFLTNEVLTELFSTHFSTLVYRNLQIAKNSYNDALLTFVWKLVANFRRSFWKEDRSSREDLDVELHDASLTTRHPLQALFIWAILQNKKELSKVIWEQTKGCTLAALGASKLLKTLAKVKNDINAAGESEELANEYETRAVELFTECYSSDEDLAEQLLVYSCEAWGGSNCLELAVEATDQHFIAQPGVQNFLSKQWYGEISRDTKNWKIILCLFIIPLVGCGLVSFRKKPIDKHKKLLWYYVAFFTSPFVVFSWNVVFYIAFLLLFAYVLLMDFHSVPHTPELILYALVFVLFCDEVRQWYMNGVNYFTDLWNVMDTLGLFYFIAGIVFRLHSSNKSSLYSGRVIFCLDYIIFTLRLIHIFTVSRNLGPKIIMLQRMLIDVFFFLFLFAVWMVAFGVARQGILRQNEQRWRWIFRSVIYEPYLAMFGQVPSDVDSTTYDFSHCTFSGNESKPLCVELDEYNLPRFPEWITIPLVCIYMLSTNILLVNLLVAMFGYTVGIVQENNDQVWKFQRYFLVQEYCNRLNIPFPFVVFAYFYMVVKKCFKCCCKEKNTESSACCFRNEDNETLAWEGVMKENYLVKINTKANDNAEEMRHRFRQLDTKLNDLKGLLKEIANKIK
# experiment: Antagonist activity at recombinant rat TRPM8 expressed in HEK293 cells assessed as inhibition of icilin-induced intracellular calcium accumulation preincubated for 5 mins followed by icilin addition by Fluo-4-AM probe-based spectrofluorimetric assay
# Assay type: cell-based
Write the answer as a number in µM, unit excluded.

[[record]]
compound = "COc1ccc(CCNC(=O)N2CCc3cc(OC)c(OC)cc3C2c2ccccc2)cc1OC (stereo not drawn)"
property_label = "IC50"
display_unit = "µM"
value = 1.2

[[record]]
compound = "COc1cc2c(cc1OC)[C@H](c1cccc([N+](=O)[O-])c1)N(C(=O)N1CCc3cc(OC)c(OC)cc3[C@@H]1c1cccc([N+](=O)[O-])c1)CC2 (racemic)"
property_label = "IC50"
display_unit = "µM"
value = 44.4

[[record]]
compound = "COc1cc2c(cc1OC)[C@H](c1ccccc1Cl)N(C(=O)N1CCc3cc(OC)c(OC)cc3[C@@H]1c1ccccc1Cl)CC2 (racemic)"
property_label = "IC50"
display_unit = "µM"
value = 19.8


Please turn your attention to the following entry.
Q. Find the measured IC50: item COc1cc2c(cc1OC)[C@H](c1ccc(F)cc1)N(C(=O)N1CCc3cc(OC)c(OC)cc3[C@@H]1c1ccc(F)cc1)CC2 (racemic) , target or system Transient receptor potential cation channel subfamily M member 8 (Rattus norvegicus).
A. 0.072

---

# test-system: Transient receptor potential cation channel subfamily M member 8 (Rattus norvegicus)
# experiment: Agonist activity at recombinant rat TRPM8 expressed in HEK293 cells assessed as increase in intracellular calcium accumulation by Fluo-4-AM probe-based spectrofluorimetric assay
# Type: cell-based
# test-settings: read-out: EC50
property-label: pEC50
Formally, pEC50 is defined as -log10 of the concentration c, with c in mol/L.

[[record]]
compound = "COc1cc2c(cc1OC)[C@H](c1ccc([N+](=O)[O-])cc1)N(C(=O)N1CCc3cc(OC)c(OC)cc3[C@@H]1c1ccc([N+](=O)[O-])cc1)CC2 (racemic)"
property_label = "pEC50"
value = 4.85


Q. Need pEC50, item "COc1ccc(/C=C2\NC(=O)[C@@H]3Cc4cc(OC)c(OC)cc4[C@@H](c4ccccc4)N3C2=O)cc1OC"
A. 4.80

Q. Would you kindly share the measured pEC50 for COc1cc(C[C@@H]2NC(=O)[C@@H]3Cc4c(OC)c(C)c(OC)c(OC)c4[C@H](/C=C/c4ccccc4)N3C2=O)c(OC)c(C)c1OC (racemic) ?
A. 4.68

Q. I would be grateful if you could share the reported pEC50 for CCC1c2cc(OC)c(OC)cc2CCN1C(=O)NCCc1cc(OC)c(OC)cc1C(CC)S(=O)(=O)c1ccc(C)cc1 (centres undefined) .
A. 4.58

---

# Test system: LNCaP
# experiment: Induction of apoptosis in human LNCAP cells assessed as increase in caspase3/7 activity at 10 uM after 72 hrs by caspase-glo 3/7 chemiluminescence assay relative to control
# Assay type: functional
property-label: Activity (%)
Write it as a number; the unit % goes unstated.

Before answering, review these 3 worked examples.
[[record]]
molecule = "COc1cc2c(cc1OC)[C@H](c1ccc(Cl)cc1)N(C(=O)N1CCc3cc(OC)c(OC)cc3[C@@H]1c1ccc(Cl)cc1)CC2 (racemic)"
test_system = "LNCaP"
display_unit = "%"
value = 190

[[record]]
molecule = "COc1cc2c(cc1OC)[C@H](c1ccccc1)N(C(=O)N1CCc3cc(OC)c(OC)cc3[C@@H]1c1ccccc1)CC2 (racemic)"
test_system = "LNCaP"
display_unit = "%"
value = 220

[[record]]
molecule = "COc1cc(/C=C2\\NC(=O)[C@@H]3Cc4c(OC)c(C)c(OC)c(OC)c4[C@@H](c4ccccc4)N3C2=O)c(OC)c(C)c1OC"
test_system = "LNCaP"
display_unit = "%"
value = 200


Q. What value of measured Activity is listed for COc1cc2c(cc1OC)[C@H](c1ccc(F)cc1)N(C(=O)N1CCc3cc(OC)c(OC)cc3[C@@H]1c1ccc(F)cc1)CC2 (racemic) ?
A. 198

---

# test-system: Heat sensitive channel TRPV3 (Rattus norvegicus)
# experiment: Antagonist activity at recombinant rat TRPV3 expressed in HEK293 cells assessed as inhibition of thymol-induced intracellular calcium accumulation up to 10 uM preincubated for 5 mins followed by thymol addition by Fluo-4-AM probe-based spectrofluorimetric assay
# Format: cell-based
Calls of active or inactive are those of the source. No cut-off for these calls is given here.
property-label: inhibition

[[record]]
molecule = "COc1cc(/C=C2\\NC(=O)[C@@H]3Cc4c(OC)c(C)c(OC)c(OC)c4[C@@H](c4ccccc4)N3C2=O)c(OC)c(C)c1OC"
test_system = "Heat sensitive channel TRPV3 (Rattus norvegicus)"
property_label = "inhibition"
value = "inactive"

[[record]]
molecule = "COc1cc2c(cc1OC)[C@H](c1ccc(Cl)cc1)N(C(=O)N1CCc3cc(OC)c(OC)cc3[C@@H]1c1ccc(Cl)cc1)CC2 (racemic)"
test_system = "Heat sensitive channel TRPV3 (Rattus norvegicus)"
property_label = "inhibition"
value = "inactive"

[[record]]
molecule = "COc1cc2c(cc1OC)[C@H](c1ccc(F)cc1)N(C(=O)N1CCc3cc(OC)c(OC)cc3[C@@H]1c1ccc(F)cc1)CC2 (racemic)"
test_system = "Heat sensitive channel TRPV3 (Rattus norvegicus)"
property_label = "inhibition"
value = "inactive"

[[record]]
molecule = "COc1cc2c(cc1OC)[C@H](c1ccccc1)N(C(=O)N1CCc3cc(OC)c(OC)cc3[C@@H]1c1ccccc1)CC2 (racemic)"
test_system = "Heat sensitive channel TRPV3 (Rattus norvegicus)"
property_label = "inhibition"
value = "inactive"


---

# test-system: Transient receptor potential cation channel subfamily V member 2 (Rattus norvegicus, UniProt Q9WUD2)
# Sequence (Q9WUD2 whole entry): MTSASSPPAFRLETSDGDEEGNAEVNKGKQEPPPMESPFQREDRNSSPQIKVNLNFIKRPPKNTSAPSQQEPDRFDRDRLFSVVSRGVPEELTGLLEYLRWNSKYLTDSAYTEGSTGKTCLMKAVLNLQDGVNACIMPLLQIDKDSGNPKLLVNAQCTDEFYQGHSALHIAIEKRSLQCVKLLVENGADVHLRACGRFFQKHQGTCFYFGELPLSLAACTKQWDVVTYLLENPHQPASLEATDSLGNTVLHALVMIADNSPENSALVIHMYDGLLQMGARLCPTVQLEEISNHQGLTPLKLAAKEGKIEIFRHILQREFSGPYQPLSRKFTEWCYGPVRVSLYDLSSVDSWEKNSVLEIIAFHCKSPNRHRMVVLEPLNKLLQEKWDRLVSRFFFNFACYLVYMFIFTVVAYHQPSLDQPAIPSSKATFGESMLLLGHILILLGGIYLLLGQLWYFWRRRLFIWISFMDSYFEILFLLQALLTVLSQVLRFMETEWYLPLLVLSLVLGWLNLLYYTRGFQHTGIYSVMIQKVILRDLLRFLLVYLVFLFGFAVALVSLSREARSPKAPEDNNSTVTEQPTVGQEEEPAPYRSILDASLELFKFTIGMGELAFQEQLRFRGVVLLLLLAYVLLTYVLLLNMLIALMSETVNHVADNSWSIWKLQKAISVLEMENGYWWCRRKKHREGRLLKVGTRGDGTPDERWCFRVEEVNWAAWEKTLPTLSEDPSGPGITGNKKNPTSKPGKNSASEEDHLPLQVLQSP
# experiment: Antagonist activity at recombinant rat TRPV2 expressed in HEK293 cells assessed as inhibition of LPC-induced intracellular calcium accumulation preincubated for 5 mins followed by LPC addition by Fluo-4-AM probe-based spectrofluorimetric assay
property-label: IC50 (µM)
Please reply with the bare figure in µM and do not write the unit itself.

[[record]]
molecule = "COc1cc(/C=C2\\NC(=O)[C@@H]3Cc4c(OC)c(C)c(OC)c(OC)c4[C@@H](c4ccccc4)N3C2=O)c(OC)c(C)c1OC"
value = 12.4

[[record]]
molecule = "COc1cc2c(cc1OC)[C@H](c1ccc(Cl)cc1)N(C(=O)N1CCc3cc(OC)c(OC)cc3[C@@H]1c1ccc(Cl)cc1)CC2 (racemic)"
value = 54.9

[[record]]
molecule = "COc1cc2c(cc1OC)[C@H](c1ccc(F)cc1)N(C(=O)N1CCc3cc(OC)c(OC)cc3[C@@H]1c1ccc(F)cc1)CC2 (racemic)"
value = 94.3


Q. Data request, read-out IC50, for COc1cc2c(cc1OC)[C@H](c1ccccc1)N(C(=O)N1CCc3cc(OC)c(OC)cc3[C@@H]1c1ccccc1)CC2 (racemic)
A. 51.9

---

# experiment: Cytotoxicity against human PNT1A cells assessed as reduction in cell viability by measuring fluorescence gated cells at 10 uM after 72 hrs by CBNF assay (reference value: 94.1%)
# Format: cell-based
# test-settings: read-out: Activity
property-label: viability at 72 h, 10 µM (%)
Number only, in %; omit the unit.

Q. GET /values?readout=viability at 72 h, 10 µM&item= COc1cc2c(cc1OC)[C@H](c1ccc(F)cc1)N(C(=O)N1CCc3cc(OC)c(OC)cc3[C@@H]1c1ccc(F)cc1)CC2 (racemic)
A. 92.7
